These entries and their values trace back to patent US12338203B2.

Biological target: human LPAR1 (Homo sapiens)
Construct: expressed in transfected cells
Assay: Test Example 1: antagonism against response of LPA-induced increase in intracellular Ca2+ concentration in RH7777 cells stably expressing human LPAR1
Assay type: cell-based
Conditions: RH7777 cells stably expressing human LPAR1; Fluo-4 fluorescence, FDSS6000; read-out: IC50 value (concentration producing 50% antagonism against response of LPA-induced increase in intracellular Ca2+ concentration) (converted)
Measured Endpoint: IC50 (µM)

P. COc1cc(C(C)N(CCOCc2ccccc2)C(=O)NC2(C(=O)O)CCOCC2)cc(OC)c1C(C)=O (stereo not shown) [Example 5-172]
Q. CCOc1cc(C(C)N(CCCCc2ccccc2)C(=O)NC(CC(=O)O)C(=O)O)cc(OCC)c1C (stereo not shown) [Example 1-12]
R. CCOc1cc([C@@H](C)N(CCC(F)(F)Cc2ccccc2)C(=O)N[C@]2(C(=O)O)C[C@@H](OC)C2)cc(OCC)c1C(C)=O [Example 4-89]
S. CCOc1cc([C@@H](C)N(CCCCc2ccccc2)C(=O)N(C)C2(C(=O)O)CC(F)(F)C2)cc(OCC)c1C [Example 2-1]
query: Task for the reader: place the compounds above in descending order according to recorded IC50. Labels, requested order.
result: Q, S, P, R
(Q: 3.6 µM, S: 0.608 µM, P: 0.0542 µM, R: 0.00759 µM)

###

Biological target: human LPAR1 (Homo sapiens, UniProt Q92633)
Construct: expressed in transfected cells
Sequence (Q92633 whole entry): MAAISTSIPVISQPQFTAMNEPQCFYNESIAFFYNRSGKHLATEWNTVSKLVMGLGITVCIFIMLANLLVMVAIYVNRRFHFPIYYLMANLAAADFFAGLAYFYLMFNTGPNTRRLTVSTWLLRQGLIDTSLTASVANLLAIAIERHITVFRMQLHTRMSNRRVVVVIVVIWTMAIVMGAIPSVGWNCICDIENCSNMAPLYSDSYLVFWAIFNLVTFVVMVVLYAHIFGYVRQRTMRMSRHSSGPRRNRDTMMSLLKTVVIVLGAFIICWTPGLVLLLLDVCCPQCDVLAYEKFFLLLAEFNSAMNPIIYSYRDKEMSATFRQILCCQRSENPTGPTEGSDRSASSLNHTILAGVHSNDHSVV
Experiment: Test Example 1: antagonism against response of LPA-induced increase in intracellular Ca2+ concentration in RH7777 cells stably expressing human LPAR1
Type: cell-based
Details: RH7777 cells stably expressing human LPAR1; Fluo-4 fluorescence, FDSS6000; read-out: IC50 value (concentration producing 50% antagonism against response of LPA-induced increase in intracellular Ca2+ concentration) (converted)
Measured Endpoint: IC50 (nM)

1. CCOc1cc(C(C)N(CCCCc2ccccc2)C(=O)NC2CCC[C@H]2C(=O)O)cc(OCC)c1C (stereo partly shown)
2. CCOc1cc(C(C)N(CCOC(C)c2ccccc2)C(=O)NC2(c3nn[nH]n3)CC(OC)C2)cc(OCC)c1C1CC1 (stereo not shown)
query: Between 1 and 2 , whose measured IC50 reads higher? Refer to your chosen entry by its label in the reply.
result: 1

I. CCOc1cc([C@@H](C)N(CCCCc2ccccc2)C(=O)NC2(C(=O)NS(N)(=O)=O)CC(F)(F)C2)cc(OCC)c1C(C)=O
II. CCOc1cc(C(C)N(CCCCc2ccccc2)C(=O)NC2(C(=O)NS(C)(=O)=O)CCCC2)cc(OCC)c1C (stereo not shown)
query: Hi! Which is lower in terms of IC50, the first one I or the second one II ? Lab log: write the label of the selected item as the result.
result: I
(I: 3.42 nM, II: 88.3 nM)

###

Target: human LPAR1 (Homo sapiens, UniProt Q92633)
Construct: expressed in transfected cells
Assay: Test Example 1: antagonism against response of LPA-induced increase in intracellular Ca2+ concentration in RH7777 cells stably expressing human LPAR1
Assay type: cell-based
Details: RH7777 cells stably expressing human LPAR1; Fluo-4 fluorescence, FDSS6000; read-out: IC50 value (concentration producing 50% antagonism against response of LPA-induced increase in intracellular Ca2+ concentration) (converted)
Measured Endpoint: IC50 (nM)

| Compound | IC50 / nM |
| --- | --- |
| CCOc1cc([C@@H](C)N(CC(C)CCc2ccccc2)C(=O)NC2(C(=O)O)CC(F)(F)C2)cc(OCC)c1C (stereo partly drawn) | 10.5 |
| CCNc1cc([C@@H](C)N(CCCCc2ccccc2)C(=O)NC2(C(=O)O)CC(F)(F)C2)cc(OCC)c1C(C)=O | 1.51 |
| CCOc1cc([C@@H](C)N(CCO[C@H](C)c2ccccc2)C(=O)N[C@]2(C(=O)O)C[C@@H](OC)C2)c(Cl)c(OCC)c1C(C)=O | 3.97 |
| CCOc1cc([C@@H](C)N(CCCCc2ccccc2)C(=O)NC2(C(=O)O)CC(N3CCN(C)CC3)C2)cc(OCC)c1C (stereo partly drawn) | 312 |
| CCOc1cc(C(C)N(CCCCc2ccccc2)C(=O)NC2(C(=O)O)CC(F)(F)C2)cc(OCC)c1CC (stereo not drawn) | 2.71 |
| CCOc1cc(C(C)N(CCCCc2ccccc2)C(=O)NC(C)(C)c2nn[nH]n2)cc(OCC)c1C(C)=O (stereo not drawn) | 2.48 |
| CCOc1cc(C(C)N(CCCCc2ccccc2)C(=O)NC2(C(=O)O)CC(F)(F)C2)cc(OCC(F)(F)F)c1C (stereo not drawn) | 10.9 |
| CCOc1cc([C@@H](C)N(CCCCc2ccccc2)C(=O)NC2(C(=O)O)CC(OC)C2)cc(OCC)c1C(C)O (single isomer, unassigned) [Example 1-89] | 2.21 |
| CCOc1cc(C(C)N(CCO[C@@H](C)c2ccccc2)C(=O)NC2(C(=O)O)CC(OCC)C2)c(Cl)c(OCC)c1C1CC1 (stereo partly drawn) [Example 5-216] | 2.56 |
| CCOc1cc([C@@H](C)N(CCO[C@@H](C)c2ccccc2)C(=O)NC2(C(=O)O)CC2)cc(OCC)c1C(C)=O | 3.07 |

1. C=Cc1c(OCC)cc(C(C)N(CCCCc2ccccc2)C(=O)NC2(C(=O)O)CC(F)(F)C2)cc1OCC (stereo not drawn)
2. CCOc1cc(C(C)N(CCOCc2ccccc2)C(=O)NC2(C(=O)O)CC(F)(F)C2)cc(OCC)c1C1CC1 (stereo not drawn)
3. CCOc1cc(C(C)N(CCOCc2ccccc2)C(=O)NC2(C(=O)O)CCC2)c(Cl)c(OCC)c1C1CC1 (stereo not drawn)
4. CCNc1cc([C@@H](C)N(CCCCc2ccccc2)C(=O)NC2(C(=O)O)CC(F)(F)C2)cc(O)c1C(C)=O
5. CCNc1cc(C(C)N(CCCCc2ccccc2)C(=O)NC2(C(=O)O)CCC2)cc(OCC)c1C(C)=O (single isomer, unassigned) [Example 5-111]
query: In this exercise, place the 5 compounds in ascending sequence of their recorded IC50. // rank by listing labels in the order requested
result: 3, 2, 1, 4, 5

P. CCCOc1cc(OCCC)cc(C(C)N(CCCCc2ccccc2)C(=O)NC2(C(=O)O)CC(F)(F)C2)c1 (stereo not drawn)
Q. CCCCN(C(=O)NC1(C(=O)O)CC(F)(F)C1)[C@H](C)c1cc(OCC)c(C)c(OCC)c1
query: Two entries are listed, P and Q . Which one carries the higher IC50? // caller expects the label of the chosen entry
result: Q
(Q: 2500 nM, P: 11 nM)

1. CCOc1c(C(C)=O)ccc([C@@H](C)N(CCCCc2ccccc2)C(=O)NC2(C(=O)O)CC2)c1C
2. CCOc1cc([C@@H](C)N(CCO[C@@H](C)c2ccccc2)C(=O)NC2(C(=O)O)CCC2)cc(OCC)c1C1CC1
3. CCOc1cc([C@@H](C)N(CCO[C@@H](C)c2ccccc2)C(=O)N[C@]2(C(=O)O)C[C@@H](OCC)C2)cc(OCC)c1C1(O)CC1
4. CCOc1cc(C(C)N(CCO[C@@H](C)c2ccccc2)C(=O)NC2(C(=O)OC)CC(F)(F)C2)c(Cl)c(OCC)c1C(C)=O (stereo partly drawn)
5. CCOc1cc([C@@H](C)N(CCCC(F)(F)c2ccccc2)C(=O)NC2(C(=O)O)CC2)cc(OCC)c1C(C)O (stereo partly drawn)
query: // smallest IC50 at index 0, largest at the end Write the labels, ordered according to the request.
result: 2, 1, 5, 3, 4

a. CCOc1cc([C@@H](C)N(CCO[C@@H](C)c2ccccc2)C(=O)N[C@]2(C(=O)O)C[C@H](OC)C2)c(C)c(OCC)c1C(C)=O
b. CCOc1cc([C@@H](C)N(CCCCc2ccc(C)cc2)C(=O)NC2(C(=O)O)CC(F)(F)C2)cc(OCC)c1C
query: Decide: a or b , by lowest recorded IC50. Label of pick, please.
result: a
(a: 3.62 nM, b: 9.68 nM)
